Target entity: MEG2 (Homo sapiens, UniProt P43378)
Sequence (P43378 1-593): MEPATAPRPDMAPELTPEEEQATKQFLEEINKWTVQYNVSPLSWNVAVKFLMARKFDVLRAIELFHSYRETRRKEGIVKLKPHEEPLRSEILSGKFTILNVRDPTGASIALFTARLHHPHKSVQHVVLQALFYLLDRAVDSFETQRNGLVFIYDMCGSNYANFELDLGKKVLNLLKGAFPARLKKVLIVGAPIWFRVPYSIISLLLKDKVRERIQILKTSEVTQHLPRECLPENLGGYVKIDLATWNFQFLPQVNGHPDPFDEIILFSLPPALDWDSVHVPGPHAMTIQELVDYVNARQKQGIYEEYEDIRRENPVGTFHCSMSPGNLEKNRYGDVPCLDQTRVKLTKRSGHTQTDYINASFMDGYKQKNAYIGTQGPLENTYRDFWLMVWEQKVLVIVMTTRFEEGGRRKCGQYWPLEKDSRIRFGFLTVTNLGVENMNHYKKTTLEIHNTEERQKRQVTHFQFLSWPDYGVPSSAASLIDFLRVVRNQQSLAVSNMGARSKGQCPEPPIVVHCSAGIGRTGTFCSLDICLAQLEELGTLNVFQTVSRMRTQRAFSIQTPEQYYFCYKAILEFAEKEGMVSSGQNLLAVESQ
pIC50: −log10 of the molar value.
Each record here notes measured pIC50.
Measure name: pIC50

Molecule: O=C(Nc1ccc(-c2ccsc2)cc1)C(=O)Nc1ccc(-c2cc3ccc(-c4nnn[nH]4)nc3n2C2CCC2)cc1
Reported result: 5.14
//
Molecule: O=C(Nc1ccc(-c2oc3cc(F)c(-c4nnn[nH]4)cc3c2C2CCC2)cc1)C(=O)Nc1ccc(N2CCC3(CCOC3)CC2)cc1
Reported result: 5.07
//
Molecule: O=C(Nc1ccc(-c2cc3cc(F)c(-c4nnn[nH]4)cc3n2C2CCC2)cc1)C(=O)Nc1ccc(N2CC3COCC3C2)cc1 (stereo not shown)
Reported result: 5.78
//
Molecule: CC1(n2c(-c3ccc(NC(=O)C(=O)Nc4ccc(N5CCC6(CCOC6)CC5)cc4)cc3)cc3cc(F)c(-c4nnn[nH]4)cc32)CCC1
Reported result: 6.05
//
Molecule: Cn1cc(-c2ccc(NC(=O)C(=O)Nc3ccc(-c4cc5cc(F)c(-c6noc(=O)[nH]6)cc5n4C4CCC4)cc3)cc2)cn1
Reported result: 5.62
//
Molecule: O=C(Nc1ccc(-c2cc3cc(F)c(-c4nnn[nH]4)cc3n2C2CCC2)cc1)C(=O)Nc1ccc(N2CCOCC2)cc1
Reported result: 6.00
//
Molecule: O=C(Nc1ccc(-c2ccsc2)cc1)C(=O)Nc1ccc(-c2cc3cnc(-c4nnn[nH]4)nc3n2C2CCC2)cc1
Reported result: 5.00

###

Target entity: CDC14A (Homo sapiens)
Construct: made in house; host or cells: E. coli
Sequence (Q9UNH5 whole entry, species assumed): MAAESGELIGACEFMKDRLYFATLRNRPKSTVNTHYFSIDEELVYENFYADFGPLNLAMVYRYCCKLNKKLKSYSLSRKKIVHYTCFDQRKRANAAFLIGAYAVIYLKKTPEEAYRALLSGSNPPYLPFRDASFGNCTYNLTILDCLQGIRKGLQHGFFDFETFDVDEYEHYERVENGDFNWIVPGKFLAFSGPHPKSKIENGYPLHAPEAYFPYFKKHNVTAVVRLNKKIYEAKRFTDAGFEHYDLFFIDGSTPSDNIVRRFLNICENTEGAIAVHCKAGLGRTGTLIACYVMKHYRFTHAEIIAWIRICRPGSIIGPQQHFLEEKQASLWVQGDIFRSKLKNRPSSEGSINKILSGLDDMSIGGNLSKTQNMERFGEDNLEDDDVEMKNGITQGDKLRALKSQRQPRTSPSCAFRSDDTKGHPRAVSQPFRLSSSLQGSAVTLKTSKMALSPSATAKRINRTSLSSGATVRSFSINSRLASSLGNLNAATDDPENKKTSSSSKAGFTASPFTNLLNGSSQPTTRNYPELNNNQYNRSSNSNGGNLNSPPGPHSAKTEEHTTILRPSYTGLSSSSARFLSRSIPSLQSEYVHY
Procedure summary: Tyrosine phosphatase selectivity (pNPP substrate), CDC14A
Assay type: biochemical
Conditions: selectivity ratio CDC14A over SHP2

Compound: O=C(Nc1ccc(-c2ccsc2)cc1)C(=O)Nc1ccc(-c2cc3ccc(-c4nnn[nH]4)nc3n2C2CCC2)cc1
IC50PTP/IC50SHP2 CDC14A: 586.4

Compound: Cn1c(-c2cccc(NC(=O)C(=O)Nc3ccc(-c4ccsc4)cc3)c2)c(I)c2cc(C(=O)O)c(O)cc21 [Example 11a-1, reference compound]
IC50PTP/IC50SHP2 CDC14A: 148

Compound: O=C(Nc1ccc(-c2cc3cc(F)c(-c4nnn[nH]4)cc3n2C2CCC2)cc1)C(=O)Nc1ccc(N2CC3COCC3C2)cc1 (stereo not drawn)
IC50PTP/IC50SHP2 CDC14A: 1388

###

Target entity: CYP1A2 (Homo sapiens, UniProt P05177)
Construct: tissue Corning or Xenotech; host or cells: human liver microsomes
Sequence (P05177 whole entry): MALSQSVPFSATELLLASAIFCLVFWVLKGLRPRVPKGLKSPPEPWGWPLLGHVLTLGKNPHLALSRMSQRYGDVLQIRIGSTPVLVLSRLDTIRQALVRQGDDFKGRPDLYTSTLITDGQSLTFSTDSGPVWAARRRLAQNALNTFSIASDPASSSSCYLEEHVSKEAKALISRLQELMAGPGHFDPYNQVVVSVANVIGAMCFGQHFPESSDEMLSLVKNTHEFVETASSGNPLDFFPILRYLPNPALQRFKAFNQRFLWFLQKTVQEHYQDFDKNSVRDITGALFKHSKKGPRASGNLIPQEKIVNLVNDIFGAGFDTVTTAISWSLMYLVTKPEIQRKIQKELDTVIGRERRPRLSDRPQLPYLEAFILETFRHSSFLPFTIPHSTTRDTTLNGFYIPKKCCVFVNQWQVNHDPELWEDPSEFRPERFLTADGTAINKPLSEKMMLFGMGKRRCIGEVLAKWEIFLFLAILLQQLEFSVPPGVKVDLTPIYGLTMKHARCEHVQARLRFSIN
Procedure summary: CYP450 inhibition in human liver microsomes, CYP1A2
Assay type: in vitro ADME
Conditions: pH 7.4, read-out: % CYP inhibition @ 10 µM 1A2
Procedure: […] Human liver microsomes were purchased from Corning or Xenotech. The test compounds were evaluated by detecting the metabolism of substrates for different Cyp450 isoforms by human liver microsomes. […]
Measure name: inhibition at 10 min, 10 µM (%)

Smiles structure: O=C(Nc1ccc(-c2cc3cc(F)c(-c4nnn[nH]4)cc3n2C2CCC2)cc1)C(=O)Nc1ccc(N2CCC3(CCOC3)CC2)cc1
Reported result: 9.47
--
Smiles structure: O=C(Nc1ccc(-c2cc3cc(F)c(-c4nnn[nH]4)cc3n2C2CCC2)cc1)C(=O)Nc1ccc(N2CCC(CO)CC2)cc1
Reported result: 17.1
--
Smiles structure: CC1(n2c(-c3ccc(NC(=O)C(=O)Nc4ccc(N5CCC6(CCOC6)CC5)cc4)cc3)cc3cc(F)c(-c4nnn[nH]4)cc32)CCC1
Reported result: 11.4

###

Target entity: SSU72 (Homo sapiens, UniProt Q9NP77)
Construct: made in house; host or cells: E. coli
Sequence (Q9NP77 whole entry, species assumed): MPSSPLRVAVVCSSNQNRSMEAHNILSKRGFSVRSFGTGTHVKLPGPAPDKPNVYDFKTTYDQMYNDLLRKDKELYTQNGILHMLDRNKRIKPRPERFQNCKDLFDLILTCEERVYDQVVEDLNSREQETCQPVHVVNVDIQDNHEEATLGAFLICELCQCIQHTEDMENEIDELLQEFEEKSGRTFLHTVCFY
Procedure summary: Tyrosine phosphatase selectivity (pNPP substrate), SSU72
Type: biochemical
Conditions: selectivity ratio SSU72 over SHP2
Mark Fulfilled for IC50PTP/IC50SHP2 SSU72 under 100, Not fulfilled if at or over.

Molecule: O=C(Nc1ccc(-c2cc3cc(F)c(-c4nnn[nH]4)cc3n2C2CCC2)cc1)C(=O)Nc1ccc(N2CC3COCC3C2)cc1 (stereo not drawn)
Target entity: SSU72 (Homo sapiens, UniProt Q9NP77)
Qualitative label: Fulfilled
//
Molecule: O=C(Nc1ccc(-c2ccsc2)cc1)C(=O)Nc1ccc(-c2cc3cnc(-c4nnn[nH]4)nc3n2C2CCC2)cc1
Target entity: SSU72 (Homo sapiens, UniProt Q9NP77)
Qualitative label: Not fulfilled
//
Molecule: O=C(Nc1ccc(-c2cc3cc(F)c(-c4nnn[nH]4)cc3n2C2CCC2)cc1)C(=O)Nc1ccc(N2CCOCC2)cc1
Target entity: SSU72 (Homo sapiens, UniProt Q9NP77)
Qualitative label: Fulfilled
//
Molecule: Cn1cc(-c2ccc(NC(=O)C(=O)Nc3ccc(-c4cc5cc(F)c(-c6noc(=O)[nH]6)cc5n4C4CCC4)cc3)cc2)cn1
Target entity: SSU72 (Homo sapiens, UniProt Q9NP77)
Qualitative label: Not fulfilled
//
Molecule: O=C(Nc1ccc(-c2cc3cc(F)c(-c4nnn[nH]4)cc3n2C2CCC2)cc1)C(=O)Nc1ccc(N2CCC3(CCOC3)CC2)cc1
Target entity: SSU72 (Homo sapiens, UniProt Q9NP77)
Qualitative label: Fulfilled
//
Molecule: O=C(Nc1ccc(-c2ccsc2)cc1)C(=O)Nc1ccc(-c2oc3cc(F)c(-c4nnn[nH]4)cc3c2C2CCC2)cc1
Target entity: SSU72 (Homo sapiens, UniProt Q9NP77)
Qualitative label: Not fulfilled

###

# IC50PTP/IC50SHP2 CDC14A annotations
Target entity: CDC14A (Homo sapiens)
Construct: made in house; host or cells: E. coli
Procedure summary: Tyrosine phosphatase selectivity (pNPP substrate), CDC14A
Format: biochemical
Conditions: selectivity ratio CDC14A over SHP2
Measure name: IC50PTP/IC50SHP2 CDC14A

Molecule: Cn1cc(-c2ccc(NC(=O)C(=O)Nc3ccc(-c4cc5cc(F)c(-c6noc(=O)[nH]6)cc5n4C4CCC4)cc3)cc2)cn1 [Example 123]
Measure name: IC50PTP/IC50SHP2 CDC14A
Reported result: 709.2
--
Molecule: O=C(Nc1ccc(-c2cc3cc(F)c(-c4nnn[nH]4)cc3n2C2CCC2)cc1)C(=O)Nc1ccc(N2CCOCC2)cc1 [Example 47]
Measure name: IC50PTP/IC50SHP2 CDC14A
Reported result: 1587
--
Molecule: Cn1cc(-c2ccc(NC(=O)C(=O)Nc3ccc(-c4cc5cc(F)c(-c6nnc(C(F)(F)F)[nH]6)cc5n4C4CCC4)cc3)cc2)cn1 [Example 124]
Measure name: IC50PTP/IC50SHP2 CDC14A
Reported result: 139.7

###

System: KYSE520
Procedure summary: CellTiter-Glo cell proliferation inhibition, KYSE520
Assay type: cell-based, human
Conditions: Homo sapiens, KYSE-520; KYSE520 cells, 120 hours, CellTiter-Glo
The following compounds are listed with their measured log10 IC50 values.
Measure name: log10 IC50 (log10 of the value in µM)

Compound: CC(C)(O)CC1CCN(c2ccc(NC(=O)C(=O)Nc3ccc(-c4cc5cc(F)c(-c6nnn[nH]6)cc5n4C4CCC4)cc3)cc2)CC1 [Example 27]
Reported result: -0.77

Compound: CC1(n2c(-c3ccc(NC(=O)C(=O)Nc4ccc(N5CCC6(CCC(O)CC6)CC5)cc4)cc3)cc3cc(F)c(-c4nnn[nH]4)cc32)CCC1 [Example 109]
Reported result: -0.97

Compound: C[C@@H](O)C1CCN(c2ccc(NC(=O)C(=O)Nc3ccc(-c4cc5cc(F)c(-c6nnn[nH]6)cc5n4C4(C)CCC4)cc3)cc2)CC1 [Example 30]
Reported result: -0.72

Compound: O=C(Nc1ccc(-c2cc3cc(F)c(-c4nnn[nH]4)cc3n2C2CCC2)cc1)C(=O)Nc1ccc(N2CCC3(CCCOC3)C2)cc1 (stereo not drawn) [Example 62]
Reported result: -0.71

Compound: O=C(Nc1ccc(-c2cc3cc(F)c(-c4nnn[nH]4)cc3n2C2CCC2)cc1)C(=O)Nc1ccc(N2CCC(CO)C2)cc1 (stereo not drawn) [Example 12]
Reported result: -0.92

Compound: O=C(Nc1ccc(-c2cc3cc(F)c(-c4nnn[nH]4)cc3n2C2CCC2)cc1)C(=O)Nc1ccc(N2CCC3(CCC(O)C3)C2)cc1 (stereo not drawn) [Example 92]
Reported result: -0.89

Compound: CC1(n2c(-c3ccc(NC(=O)C(=O)Nc4ccc(N5CCC6(CCC(CO)CC6)CC5)cc4)cc3)cc3cc(F)c(-c4nnn[nH]4)cc32)CCC1 [Example 113]
Reported result: -0.94

Compound: COC1CC(n2c(-c3ccc(NC(=O)C(=O)Nc4ccc(N5CCC6(CCC(O)C6)CC5)cc4)cc3)cc3cc(F)c(-c4nnn[nH]4)cc32)C1 (stereo not drawn) [Example 103]
Reported result: -1.38

Compound: CC1(n2c(-c3ccc(NC(=O)C(=O)Nc4ccc(N5CCC(CCO)CC5)cc4)cc3)cc3cc(F)c(-c4nnn[nH]4)cc32)CCC1 [Example 26]
Reported result: -0.90

Compound: CC1(O)CC2(CCN(c3ccc(NC(=O)C(=O)Nc4ccc(-c5cc6cc(F)c(-c7nnn[nH]7)cc6n5C5CCC5)cc4)cc3)CC2)C1 [Example 94]
Reported result: -0.94

Compound: CC(O)C1CCN(c2ccc(NC(=O)C(=O)Nc3ccc(-c4cc5cc(F)c(-c6nnn[nH]6)cc5n4C4CCC4)cc3)cc2)CC1 (stereo not drawn) [Example 29]
Reported result: -1.12

Compound: Cn1cc(-c2ccc(NC(=O)C(=O)Nc3ccc(-c4cc5cc(F)c(-c6nnc(C(F)(F)F)[nH]6)cc5n4C4CCC4)cc3)cc2)cn1 [Example 124]
Reported result: -0.18

These measurements were taken from patent EP4741383A1.
